- test.description: protein stability index of a GFP-peptide fusion (yeast GPS) (PSI 1-4); higher = more stable; sorted into four equal gates, so the index is relative within each strain
- recorded.conditions: pdr5∆
observed.property: protein stability index
Format: numeric value only, no unit, no commentary.

1. ELESMLEDLKNTKEIAV [RRP6]: 2.27
2. LVSLFEDTNLAAIHAKR [HHT1]: 2.67
3. KRPGKLSDYIPGPYPNE [CYT1]: 3.22
4. NTSIAQFDIQSPLYMDT [YML103C/NUP188]: 2.89
5. SYELIKEECQIEDDGII [CSN9]: 3.01
6. FTGEKPIITGSTSTSSS [MED8]: 2.7
7. EAARICANKYMTTVSGR [RPL10]: 2.59
8. LPVKHPELFESLGIAQP [RPT6]: 3.01

Kindly note the recorded protein stability index for PLASEESLTNSNMFDNS [YGL100W/SEH1] , which is 3.02

Kindly note the recorded protein stability index for KAGVEAISQSLRDESLT [PRE5] , which is 3.09

Kindly note the recorded protein stability index for PSTGFKFSLPFEQKGSQ [YLR335W/NUP2] , which is 2.94

Kindly note the recorded protein stability index for ELTKNPNSNVELAGGNA [SMC1] , which is 3.01

Kindly note the recorded protein stability index for LLDVVKGTEASNDIIDK [YDL116W/NUP84] , which is 2.51

Kindly note the recorded protein stability index for LKFNSTEYRGTLVSTDN [SMX3] , which is 2.59

Kindly note the recorded protein stability index for TDTSTTATAATNGNNAG [MED6] , which is 3.06

Kindly note the recorded protein stability index for PEKEASSATIVLCLTRS [YCG1] , which is 2.5

Kindly note the recorded protein stability index for EISLKAHCILGIGGDHA [RPC40] , which is 1.3

Kindly note the recorded protein stability index for KQHAVLMLGSVNLPGGI [RRP4] , which is 2.17

Kindly note the recorded protein stability index for LHGNAKKAAEEAGVTDV [FAS2] , which is 3.18

Kindly note the recorded protein stability index for GNSKDDLLDMIQFGAKN [ISW2] , which is 2.89

###

Entries and their protein stability index
- test.description: protein stability index of a GFP-peptide fusion (yeast GPS) (PSI 1-4); higher = more stable; sorted into four equal gates, so the index is relative within each strain
- recorded.conditions: doa10∆
Format: numeric value only, no unit, no commentary.

1) QFISSRQFEVKQLQLAM [POP1]: 2.24
2) DTCAVSFDAVSDSIELL [YJR042W/NUP85]: 3.04
3) KWQTLIEANVTVKTSDD [RPS1A]: 1.42
4) NLKVELKEQSEQLKEQM [SMC4]: 3.27
5) ESVLPAARYDYAVAEQC [QCR2]: 3.15

Kindly note the recorded protein stability index for DTTANNGKVQYFLRRQY [YJL039C/NUP192] , which is 2.71

Kindly note the recorded protein stability index for AFLSFLAYRNYWTQYLG [YJL039C/NUP192] , which is 1.33

Kindly note the recorded protein stability index for PDMYERKVENIRTILVN [MED7] , which is 1.32

###

- test.description: protein stability index of a GFP-peptide fusion (yeast GPS) (PSI 1-4); higher = more stable; sorted into four equal gates, so the index is relative within each strain
- recorded.conditions: doa10∆
Entries and their protein stability index
Format: numeric value only, no unit, no commentary.

Kindly note the recorded protein stability index for EESIRESLQKRELLKSQ [SIR3] , which is 3.13

Kindly note the recorded protein stability index for GQLPQLPKLNLPKYQTI [SNF5] , which is 2.78

Kindly note the recorded protein stability index for HFFKWIEFIVYHQLLSD [SRB8] , which is 1.45

###

- test.description: protein stability index of a GFP-peptide fusion (yeast GPS) (PSI 1-4); higher = more stable; sorted into four equal gates, so the index is relative within each strain
- recorded.conditions: ubr1∆
Entries and their protein stability index
Format: numeric value only, no unit, no commentary.

The examples below pair each entry with its known result.
1. DQLIISSSANKLLQLFL [YML103C/NUP188]: 2.54
2. FSQEALQYVVERVGKRT [FAS1]: 1.17
3. FEGVTHRWGTKKLPRKT [RPL3]: 3.34
4. ADEMGLGKTIQTISLLT [SNF2]: 2.41

Kindly note the recorded protein stability index for ENEVSDIDVTIVSKEYE [ESC2] , which is 1.96

###

- test.description: protein stability index of a GFP-peptide fusion (yeast GPS) (PSI 1-4); higher = more stable; sorted into four equal gates, so the index is relative within each strain
- recorded.conditions: san1∆
observed.property: protein stability index
Format: numeric value only, no unit, no commentary.

1. TQEEVELPLEDFKAKYC [RPB5]: 3.58
2. RFKVVKVSGVSLLALWK [RPS23A]: 1.71
3. KIQQHNTILNSSSDFRL [BRR2]: 2.89
4. NTSIAQFDIQSPLYMDT [YML103C/NUP188]: 2.08
5. MILNYNPSQGVSNSGAQ [UBP6]: 3.14
6. STRLKKACKTADKLVNV [SRP68]: 2.98

Kindly note the recorded protein stability index for PHLFVNGDLTVSLCAKN [SSN2] , which is 2.25

###

Entries and their protein stability index
- test.description: protein stability index of a GFP-peptide fusion (yeast GPS) (PSI 1-4); higher = more stable; sorted into four equal gates, so the index is relative within each strain
- recorded.conditions: ubr1∆
Format: numeric value only, no unit, no commentary.

The examples below pair each entry with its known result.
1. TTDNNNSGNSNSNSNQQ [RPT1]: 3.36
2. DASPAPSNESCSPWSLQ [SRB5]: 2.33
3. KSMLSKPETLSIGKNPF [SWI3]: 2.9
4. LRLRISRKRNEEEDAKN [RPL31A]: 2.32
5. PLPHRVQKSTKTFSYKR [RPL20A]: 2.38

Kindly note the recorded protein stability index for KKVLEIDFFKTDDSFED [BRN1] , which is 2.18

Kindly note the recorded protein stability index for QNAADLQQICRVRNKDI [RPL9A] , which is 2.89

Kindly note the recorded protein stability index for AYPGKLICPQYGTENKD [CSL4] , which is 1.9

###

- test.description: protein stability index of a GFP-peptide fusion (yeast GPS) (PSI 1-4); higher = more stable; sorted into four equal gates, so the index is relative within each strain
- recorded.conditions: doa10∆
Record yes whenever protein stability index is at 3 or higher; record no when lower.

Worked cases, answers included:
1. PDYYVSILSFVDKELLE [RPT2]: no
2. LSLTAVPSFLRPDITMY [GRR1]: no

Assess whether reported protein stability index for AVSVANGFMHAGTTDNS [RPN2] sits at 3 or higher.
no

###

- test.description: protein stability index of a GFP-peptide fusion (yeast GPS) (PSI 1-4); higher = more stable; sorted into four equal gates, so the index is relative within each strain
- recorded.conditions: doa10∆
observed.property: protein stability index
Format: numeric value only, no unit, no commentary.

1) EDQKVVDKALIAEIKKT [RPL6A]: 3.37

Kindly note the recorded protein stability index for KLEGSENSEPPALESSP [SNF2] , which is 3.09

###

- test.description: protein stability index of a GFP-peptide fusion (yeast GPS) (PSI 1-4); higher = more stable; sorted into four equal gates, so the index is relative within each strain
- recorded.conditions: san1∆
Entries and their protein stability index
Format: numeric value only, no unit, no commentary.

The examples below pair each entry with its known result.
1) VPSAKPLILTPPQLANQ [SNF11]: 2.64
2) DITGDIRNEGSDAEEEE [ISW2]: 3.05
3) LALMTAHSLSPKDYIKK [CDC53]: 3.25
4) AFIFGLQDELKELQLEK [SMC3]: 3.11
5) PGTITHGMFSSASVRAL [FAS1]: 2.53
6) NIVHNFKERQMMVSYPK [AAR2]: 1.9
7) RSMLTVVRNMLALTTLS [YCG1]: 2.29
8) QQRIREIGLLPEDALVN [SMC3]: 3.27

Kindly note the recorded protein stability index for LVDVMTTQGGLTSVTRH [RPO21] , which is 2.1

Kindly note the recorded protein stability index for KSSPISNEAAKPSFSFP [YOR098C/NUP1] , which is 2.96

Kindly note the recorded protein stability index for RLGSKKLVEIIWNDVVY [YJL039C/NUP192] , which is 3.46

Kindly note the recorded protein stability index for NKQSVSNLSPDLKFKRH [DSN1] , which is 3.32

Kindly note the recorded protein stability index for LYNKIWTEASSSGAGTV [ECM29] , which is 2.12

Kindly note the recorded protein stability index for TRNEQTTIQTEKVRPTP [MCD1] , which is 2.88

###

Entries and their protein stability index
- test.description: protein stability index of a GFP-peptide fusion (yeast GPS) (PSI 1-4); higher = more stable; sorted into four equal gates, so the index is relative within each strain
- recorded.conditions: san1∆
Format: numeric value only, no unit, no commentary.

1. LDIKRVGSENVECTISI [SNF12]: 2.56

Kindly note the recorded protein stability index for QELRKKVNPNIMNMIEN [SMC2] , which is 2.37

Kindly note the recorded protein stability index for SQAFDIVAALPISEKGL [RPP1] , which is 2.66

Kindly note the recorded protein stability index for ETQFKLSRPYKALKTNI [CDC53] , which is 2.23

Kindly note the recorded protein stability index for KEDTVSWFKQKYDADVL [RPL11A] , which is 1.57

Kindly note the recorded protein stability index for KIADLVRIPPDQFHRDT [RPC25] , which is 2.45

Kindly note the recorded protein stability index for NNDLESVSMLLQYYILE [RRI2] , which is 3.16

Kindly note the recorded protein stability index for EIESIDKLPQFVDENTF [RPN1] , which is 3.09
